- System: Glutamate receptor ionotropic, NMDA 3A (GRIN3A) ligand-binding domain
- test: binders of NR3A ligand-binding domain, primary screen, biophysical, differential scanning fluorimetry, uHTS (AID 1259313)
- measurement-setup: NR3A LBD differential scanning fluorimetry, at 25 µM, active compounds read high, 0% = protein alone, 100% = glycine-bound protein
In all, about 340,000 compounds went through this assay and about 8,500 (2.5%) were called active. The sample holds actives, similar compounds and a random draw of the others, so the mix is not that of the screen.
Please go through the items and note down their Tm shift relative to glycine control.
One number for each entry, in %.

>>> result("Cc1cc(Cl)c2oc(C(=O)NC(C)c3ccncn3)c(C)c2c1 (stereo not given)")
-2.04
>>> result("CC(=O)C1=C(C)NC(C)=C(C(C)=O)C1c1cn(-c2ccccc2)nc1-c1cccs1")
-4.58
>>> result("CC(C)(Oc1ccc(C2CC2(Cl)Cl)cc1)C(=O)O (stereo not given)")
-0.77
>>> result("O=C(CCNC(=O)c1ccc(Br)cc1)Nc1cccc(S(=O)(=O)N2CCCCC2)c1")
-8.95

As a next step, examine the compound that follows.
Exercise: Entry "Cc1ccc(S(=O)(=O)N2CCCCC2)cc1NC(=O)c1cccnc1" has what Tm shift relative to glycine control?
Solution: -0.36

---

- System: Glutamate receptor ionotropic, NMDA 3A (GRIN3A) ligand-binding domain
- test: binders of NR3A ligand-binding domain, primary screen, biophysical, differential scanning fluorimetry, uHTS (AID 1259313)
- measurement-setup: NR3A LBD differential scanning fluorimetry, at 25 µM, active compounds read high, 0% = protein alone, 100% = glycine-bound protein
The whole screen tested about 340,000 compounds, of which about 8,500 (2.5%) were called active. Many of the other results were omitted from the sample, so actives are more common in it than they were.
Please go through the items and note down their Tm shift relative to glycine control.
Give bare numbers, in %.

>>> result("O=C(COC(=O)c1ccccc1)Nc1ccccc1Sc1ccccc1")
5.64
>>> result("O=C(COC(=O)c1cccc(Br)c1)Nc1cccc2c1C(=O)c1ccccc1C2=O")
14.9

Batch request: Tm shift relative to glycine control for each of the following compounds.
1. O=C(CCNC(=O)c1ccccc1)NN=Cc1ccc(Br)o1
2. COc1ccc(/C=C(/CC(=O)Nc2ccc(C)cc2)c2nc3ccccc3s2)cc1
3. Cc1scc(C(=O)NNC(=S)NCC(C)C)c1C
4. CCCCN1C(N)=NC[C@@H]1CC1CCCCC1
5. CC1CN(S(=O)(=O)c2ccc(C(=O)Nc3sccc3C(N)=O)cc2)CC(C)O1 (stereo not given)
6. Cc1cc(=O)oc2cc(OCC(=O)Nc3nnc(C4CC4)s3)ccc12
7. CCOC(=O)c1c(C)[nH]c(C2=NNC(=NC(C)COC)SC2)c1C (stereo not given)
8. COC(=O)Cc1ccc(NC(=S)NCc2ccc(Cl)cc2)cc1

Solution:
-3.41
-2.24
-0.09
-3.87
-4.29
-0.86
-1.92
-5.66

Batch request: Tm shift relative to glycine control for each of the following compounds.
1. CCOc1cc2[nH]c(=S)n(Cc3ccc(C(=O)NCCOC)cc3)c(=O)c2cc1OCC
2. CCCCCc1nnc(NC(=O)c2ccc(=O)n(C)n2)s1
3. CCOC(=O)CNC(=O)CSc1nnc(COc2ccc(Cl)cc2)n1CC
4. CNc1nc(=O)n(C2CCCO2)cc1C (stereo not given)

Solution:
1. -2.12
2. -0.62
3. -0.34
4. -4.19

Batch request: Tm shift relative to glycine control for each of the following compounds.
1. Cc1csc(=O)n1CCC(=O)OCC(=O)NNC(=O)c1ccc(Br)cc1
2. CCOc1cc2[nH]c(=S)n(Cc3ccc(C(=O)N4CCN(C)CC4)cc3)c(=O)c2cc1OCC
3. CN(C)C(=O)CCC(=O)N1CCCCC1C(=O)Nc1ccc(Oc2ccccc2F)cc1 (stereo not given)
4. CCOc1cc(/C=C/C(=O)OCC(=O)NCCN2C(=O)CSC2=O)ccc1OCC(C)C
5. NS(=O)(=O)c1ccc(NC(=O)COC(=O)c2c3c(nc4ccccc24)/C(=C\c2ccc4c(c2)OCO4)CCC3)cc1
6. CC(C)(C)NC(=O)COc1ccc(CNc2ccc3[nH]c(=O)[nH]c3c2)cc1
7. CC1CC1C(=O)OCC(=O)c1c(N)n(C)c(=O)n(C)c1=O (stereo not given)

Solution:
-0.85
-2.77
-0.77
0.08
38
-1.72
-0.75
